# Tested on: 565232-114-T-J1-PDC complex spheroid viability
# MEASUREMENT_PROTOCOL: Anticancer human tumor 565232-114-T-J1-PDC patient-derived bladder carcinoma cell line growth inhibition [CLK]
# RECORDED_CONDITIONS: second compound 0.316 µM; first compound 0.316 µM; stronger effect = lower value
Assign labels as follows, please: MET for viability, T/C below 10%; NOT MET for viability, T/C equal to or exceeding 10%.

These solved cases illustrate the format of a correct answer.
{"COMPOUND": "CCN1CCN(Cc2ccc(Nc3ncc(F)c(-c4cc(F)c5nc(C)n(C(C)C)c5c4)n3)nc2)CC1 + CN1CCN(c2cc(C(=O)Nc3cc4cc(-c5cnn(C)c5)ccc4cn3)ccn2)CC1", "SYSTEM_TESTED": "565232-114-T-J1-PDC complex spheroid viability", "CLASS_LABEL": "NOT MET"}
{"COMPOUND": "CC(=O)O[C@H]1C(=O)[C@@]2(C)[C@H]([C@H](OC(=O)c3ccccc3)[C@]3(O)C[C@H](OC(=O)[C@H](O)[C@@H](NC(=O)c4ccccc4)c4ccccc4)C(C)=C1C3(C)C)[C@]1(OC(C)=O)CO[C@@H]1C[C@@H]2O + CN1CCN(c2cc(C(=O)Nc3cc4cc(-c5cnn(C)c5)ccc4cn3)ccn2)CC1", "SYSTEM_TESTED": "565232-114-T-J1-PDC complex spheroid viability", "CLASS_LABEL": "NOT MET"}
{"COMPOUND": "COc1cccc2c1C(=O)c1c(O)c3c(c(O)c1C2=O)CC(O)(C(=O)CO)CC3OC1CC(N)C(O)C(C)O1 (stereo not given) + CN1CCN(c2cc(C(=O)Nc3cc4cc(-c5cnn(C)c5)ccc4cn3)ccn2)CC1", "SYSTEM_TESTED": "565232-114-T-J1-PDC complex spheroid viability", "CLASS_LABEL": "MET"}
{"COMPOUND": "O=C(c1cc(Cc2n[nH]c(=O)c3ccccc23)ccc1F)N1CCN(C(=O)C2CC2)CC1 + CNC(=O)c1ccc(Nc2nc(OC3CCCC3)c3c(-c4ccc5nc(C)oc5c4)c[nH]c3n2)c(OC)c1", "SYSTEM_TESTED": "565232-114-T-J1-PDC complex spheroid viability", "CLASS_LABEL": "NOT MET"}

With those in mind, consider the next compound.
Say whether its viability, T/C is strictly beneath 10%. Entry: Nc1ccccc1NC(=O)c1ccc(CNC(=O)OCc2cccnc2)cc1 + CN1CCN(c2cc(C(=O)Nc3cc4cc(-c5cnn(C)c5)ccc4cn3)ccn2)CC1
NOT MET

---

# Tested on: 565232-114-T-J1-PDC complex spheroid viability
# MEASUREMENT_PROTOCOL: Anticancer human tumor 565232-114-T-J1-PDC cell line growth inhibition [CLK];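 further: spheroids exposed to compounds for 7 days before readout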;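 on viability, T/C: 100% = DMSO vehicle wells with luminescence normalized to vehicle control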
# RECORDED_CONDITIONS: second compound 0.0316 µM; first compound 3.16 µM; stronger effect = lower value
MEASUREMENT_LABEL: viability, T/C (%)
The figure you give is taken to be in %; do not add the unit.

Quick check: viability, T/C of O=C(c1cc(Cc2n[nH]c(=O)c3ccccc23)ccc1F)N1CCN(C(=O)C2CC2)CC1 + CNC(=O)c1ccc(Nc2nc(OC3CCCC3)c3c(-c4ccc5nc(C)oc5c4)c[nH]c3n2)c(OC)c1 ?
104

Quick check: viability, T/C of COc1cccc2c1C(=O)c1c(O)c3c(c(O)c1C2=O)CC(O)(C(=O)CO)CC3OC1CC(N)C(O)C(C)O1 (stereo unspecified) + CN1CCN(c2cc(C(=O)Nc3cc4cc(-c5cnn(C)c5)ccc4cn3)ccn2)CC1 ?
0.19

Quick check: viability, T/C of C#Cc1c(F)ccc2cc(O)cc(-c3ncc4c(N5CC6CCC(C5)N6)nc(OCC56CCCN5CC(F)C6)nc4c3F)c12 (stereo unspecified) + CN1CCN(c2cc(C(=O)Nc3cc4cc(-c5cnn(C)c5)ccc4cn3)ccn2)CC1 ?
93.2

Quick check: viability, T/C of CCCS(=O)(=O)Nc1ccc(F)c(C(=O)c2c[nH]c3ncc(-c4ccc(Cl)cc4)cc23)c1F + CNC(=O)c1ccc(Nc2nc(OC3CCCC3)c3c(-c4ccc5nc(C)oc5c4)c[nH]c3n2)c(OC)c1 ?
110

Quick check: viability, T/C of COC1C=CCC(C)C(C)S(=O)(=O)NC(=O)c2ccc3c(c2)N(CC2CCC21)CC1(CCCc2cc(Cl)ccc21)CO3 (stereo unspecified) + CNC(=O)c1ccc(Nc2nc(OC3CCCC3)c3c(-c4ccc5nc(C)oc5c4)c[nH]c3n2)c(OC)c1 ?
6.83

Quick check: viability, T/C of C=CC(=O)N1CCN(c2nc(=O)n(-c3c(C)ccnc3C(C)C)c3nc(-c4c(O)cccc4F)c(F)cc23)C(C)C1 (stereo unspecified) + CNC(=O)c1ccc(Nc2nc(OC3CCCC3)c3c(-c4ccc5nc(C)oc5c4)c[nH]c3n2)c(OC)c1 ?
105

Quick check: viability, T/C of C#Cc1c(F)ccc2cc(O)cc(-c3ncc4c(N5CC6CCC(C5)N6)nc(OCC56CCCN5CC(F)C6)nc4c3F)c12 (stereo unspecified) + CNC(=O)c1ccc(Nc2nc(OC3CCCC3)c3c(-c4ccc5nc(C)oc5c4)c[nH]c3n2)c(OC)c1 ?
119

Quick check: viability, T/C of CC(Nc1ccc2c(c1)OCCn1cc(N3C(=O)OCC3C(F)F)nc1-2)C(N)=O (stereo unspecified) + CNC(=O)c1ccc(Nc2nc(OC3CCCC3)c3c(-c4ccc5nc(C)oc5c4)c[nH]c3n2)c(OC)c1 ?
101

---

# Test system: 565232-114-T-J1-PDC complex spheroid viability
# MEASUREMENT_PROTOCOL: Anticancer human tumor 565232-114-T-J1-PDC cell line growth inhibition [CLK];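 further: spheroids exposed to compounds for 7 days before readout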
# RECORDED_CONDITIONS: curve of first compound; second compound 3.16 µM
MEASUREMENT_LABEL: IC50

Quick check: IC50 of NC(=O)C(=Cn1cnc(-c2cc(C(F)(F)F)cc(C(F)(F)F)c2)n1)c1cncnc1 + CN1CCN(c2cc(C(=O)Nc3cc4cc(-c5cnn(C)c5)ccc4cn3)ccn2)CC1 ?
< 0.00949 µM

Quick check: IC50 of O=c1[nH]cc(F)c(=O)[nH]1 + CN1CCN(c2cc(C(=O)Nc3cc4cc(-c5cnn(C)c5)ccc4cn3)ccn2)CC1 ?
< 0.0316 µM

Quick check: IC50 of CC(CO)NC(=O)c1cc(-c2ccc(Cl)cc2)nn(-c2cnn(C)c2)c1=O (stereo not given) + CNC(=O)c1ccc(Nc2nc(OC3CCCC3)c3c(-c4ccc5nc(C)oc5c4)c[nH]c3n2)c(OC)c1 ?
< 0.0316 µM

Quick check: IC50 of C#Cc1c(F)ccc2cc(O)cc(-c3ncc4c(N5CC6CCC(C5)N6)nc(OCC56CCCN5CC(F)C6)nc4c3F)c12 (stereo not given) + CNC(=O)c1ccc(Nc2nc(OC3CCCC3)c3c(-c4ccc5nc(C)oc5c4)c[nH]c3n2)c(OC)c1 ?
< 0.0316 µM

Quick check: IC50 of CC1(C)CCC(CN2CCN(c3ccc(C(=O)NS(=O)(=O)c4ccc(NCC5CCOCC5)c([N+](=O)[O-])c4)c(Oc4cnc5[nH]ccc5c4)c3)CC2)=C(c2ccc(Cl)cc2)C1 + CN1CCN(c2cc(C(=O)Nc3cc4cc(-c5cnn(C)c5)ccc4cn3)ccn2)CC1 ?
< 0.0316 µM

---

Below, each of the molecules is paired with its reported viability, T/C value.
# Tested on: 565232-114-T-J1-PDC complex spheroid viability
# MEASUREMENT_PROTOCOL: Anticancer human tumor 565232-114-T-J1-PDC cell line growth inhibition [CLK];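 further: spheroids exposed to compounds for 7 days before readout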;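 on viability, T/C: 100% = DMSO vehicle wells with luminescence normalized to vehicle control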
# RECORDED_CONDITIONS: second compound 0.0316 µM; first compound 0.1 µM; stronger effect = lower value
The figure you give is taken to be in %; do not add the unit.

{"MOLECULE": "CC(CO)NC(=O)c1cc(-c2ccc(Cl)cc2)nn(-c2cnn(C)c2)c1=O (stereo not drawn) + CN1CCN(c2cc(C(=O)Nc3cc4cc(-c5cnn(C)c5)ccc4cn3)ccn2)CC1", "viability, T/C, %": 73.7}

Quick check: viability, T/C of CCN1CCN(Cc2ccc(Nc3ncc(F)c(-c4cc(F)c5nc(C)n(C(C)C)c5c4)n3)nc2)CC1 + CN1CCN(c2cc(C(=O)Nc3cc4cc(-c5cnn(C)c5)ccc4cn3)ccn2)CC1 ?
92.8

Quick check: viability, T/C of COc1cccc2c1C(=O)c1c(O)c3c(c(O)c1C2=O)CC(O)(C(=O)CO)CC3OC1CC(N)C(O)C(C)O1 (stereo not drawn) + CNC(=O)c1ccc(Nc2nc(OC3CCCC3)c3c(-c4ccc5nc(C)oc5c4)c[nH]c3n2)c(OC)c1 ?
55.5

---

# Tested on: 565232-114-T-J1-PDC complex spheroid viability
# MEASUREMENT_PROTOCOL: Anticancer human tumor 565232-114-T-J1-PDC cell line growth inhibition [CLK];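 further: spheroids exposed to compounds for 7 days before readout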
# RECORDED_CONDITIONS: curve of first compound; second compound 0.1 µM
MEASUREMENT_LABEL: pIC50
Hey, just a heads up that pIC50 is the negative log base 10 of the concentration in molar.

Quick check: pIC50 of Nc1ccccc1NC(=O)c1ccc(CNC(=O)OCc2cccnc2)cc1 + CN1CCN(c2cc(C(=O)Nc3cc4cc(-c5cnn(C)c5)ccc4cn3)ccn2)CC1 ?
5.58
